Experiment: qHTS assay to identify small molecule agonists of the AP-1 signaling pathway - cell viability counter screen (AID 1159525); also: nearly all actives have a fitted effect of over 55% in size
Conditions: ME-180 (cervical carcinoma) AP-1-bla cells viability, ATP luminescence, 5 h; series mostly up to 76.8 µM
Records with an inconclusive call do not appear. The source made the active and inactive calls. Calls follow the shape of the full dose curve.
Outcomes: active, inactive

compound=COc1ccc(-c2ccc3cc(C(=O)O)ccc3c2)cc1C12CC3CC(CC(C3)C1)C2 category=inactive
compound=CC(C)C(C)(C)C(C)(C)C(C)(C)S category=inactive
compound=Nc1ccccc1O category=active
compound="Cc1cccc(N(C)C(=S)Oc2ccc3c(c2)C2CCC3C2)c1 (stereo unspecified)" category=inactive
compound=Cc1ccc(O)c2ncccc12 category=active
compound="CC(C)OC(=O)c1cc2c(OCC(O)CNC(C)(C)C)cccc2[nH]1 (stereo unspecified)" category=inactive
compound=CC(=O)N1CCN(c2ccc(OC[C@H]3CO[C@](Cn4ccnc4)(c4ccc(Cl)cc4Cl)O3)cc2)CC1 category=active
compound=CCN(C(=O)c1cc(C)cc(OC[C@H](C)Nc2ccncc2)c1)C(C)C category=inactive
compound="C=C(C)C(=O)OCC(O)COc1ccc(C(C)(C)c2ccc(OCC(O)COC(=O)C(=C)C)cc2)cc1 (stereo unspecified)" category=inactive
compound=CC[C@H]1O[C@]2(CC[C@@H]1C)C[C@@H]1C[C@@H](C/C=C(\C)C[C@@H](C)/C=C/C=C3\CO[C@@H]4[C@H](O)C(C)=C[C@@H](C(=O)O1)[C@]34O)O2 category=active
compound=Nc1ccc2cc(S(=O)(=O)O)cc(O)c2c1N=Nc1ccccc1C(F)(F)F category=inactive
compound=COc1cc(-c2nc(NC(=O)c3cc4cc(C)cc(C)c4n3CC(=O)O)sc2CCC2CCCCC2)c(OC)cc1Cl category=active
compound="CCN(CC)CCCC(C)Nc1c2ccc(Cl)cc2nc2ccc(OC)cc12 (stereo unspecified)" category=inactive
compound=O=c1cc(-c2ccc(O)cc2)oc2cc(O)cc(O)c12 category=inactive
compound=CNC(=O)c1ccccc1 category=inactive
compound=Cc1onc(-c2ccccc2Cl)c1C(=O)N[C@@H]1C(=O)N2[C@@H]1SC(C)(C)[C@@H]2C(=O)O category=inactive
compound="CCCCC(CC)COC(=O)c1ccccc1C(=O)O (stereo unspecified)" category=inactive
compound=O=C1c2ccccc2Cc2ccccc21 category=inactive
compound=Cc1cc(C2CCCCC2)n(O)c(=O)c1 category=inactive
compound=O=C(Oc1cccc2cccnc12)c1ccccc1 category=inactive
compound=CN(C/C=C/C#CC(C)(C)C)Cc1cccc2ccccc12 category=inactive
compound=C=C(C)C(=O)OCC[N+](C)(C)C category=inactive
compound=Cc1ccc(-n2nc(C(C)(C)C)cc2NC(=O)Nc2ccc(OCCN3CCOCC3)c3ccccc23)cc1 category=inactive
compound=Nc1c2ccccc2nc2ccccc12 category=inactive
compound=Cc1[nH]cnc1C[C@H]1CCc2c(C)c3ccccc3n2C1=O category=inactive
compound=CCCCCCCCOC(=O)c1ccc(O)cc1 category=active
